Give measured EC50 in nM (mean); L929s + Act D cytotoxicity assay, human TNFa @ 0.5 ng/ml for each item. Keep answers brief.
# tested system: human TNFα (human, UniProt P01375 77-233)
# Sequence (P01375 77-233 limits assumed): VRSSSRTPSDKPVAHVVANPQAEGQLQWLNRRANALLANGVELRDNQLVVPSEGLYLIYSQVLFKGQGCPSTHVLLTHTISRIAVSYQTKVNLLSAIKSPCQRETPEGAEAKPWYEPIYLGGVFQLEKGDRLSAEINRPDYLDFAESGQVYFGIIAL
# method summary: cell-based or functional assay
Quick reminder: number only, in nM, skip the unit.

What value of EC50 in nM (mean); L929s + Act D cytotoxicity assay, human TNFa @ 0.5 ng/ml has been recorded for this entry: TNF20 (TNF3 HUM1) (VHH) VHH: EVQLVESGGGLVQPGGSLRLSCAASGRSLSNYYMGWFRQAPGKGRELLGNISWRGYNIYYKDSVKGRFTISRDDSKNTIYLQMNSLKPEDTAVYYCAASILPLSDDPGWNTYWGQGTQVTVSS 0.38

What value of EC50 in nM (mean); L929s + Act D cytotoxicity assay, human TNFa @ 0.5 ng/ml has been recorded for this entry: TNF22 (TNF3 HUM3) (VHH) VHH: EVQLVESGGGLVQPGGSLRLSCAASGRSLSNYYMGWFRQAPGKGRELLGNISWRGYNIYYKDSVKGRFTISRDDSKNTIYLQMNSLKTEDTAVYYCAASILPLSDDPGWNTYWGQGTQVTVSS 0.303

What value of EC50 in nM (mean); L929s + Act D cytotoxicity assay, human TNFa @ 0.5 ng/ml has been recorded for this entry: TNF17 (TNF2 HUM3) (VHH, Humanised TNF2, first round) VHH: EVQLVESGGGLVQPGGSLRLSCAASGRTFSEPSGYTYTIGWFRQAPGKGREFVARIYWSSGLTYYADSVKGRFTISRDNAKNTVDLQMNSLKPEDTAVYYCAARDGIPTSRSVGSYNYWGQGTQVTVSS 3.02

What value of EC50 in nM (mean); L929s + Act D cytotoxicity assay, human TNFa @ 0.5 ng/ml has been recorded for this entry: TNF18 (TNF2 HUM4) (VHH, Humanised TNF2, first round) VHH: EVQLVESGGGLVQPGGSLRLSCAASGRTFSEPSGYTYTIGWFRQAPGKGREFVARIYWSSGLTYYADSVKGRFTISRDIAKNTVDLQMNSLRPEDTAVYYCAARDGIPTSRSVGSYNYWGQGTQVTVSS 1.51
